System: P388
protocol summary: Antiproliferative activity against mouse P388 cells
Format: functional, cell-based
attribute measured: pIC50
Give bare numbers, as −log10 of the molar value.

Request: Returns the measured pIC50 for the input molecule. Input: Cc1ccc2c(c1C)CN(C(=O)N(C)C)C[C@@H]2c1cccc(O)c1
Response: 6.34

----------
Tested on: A2780
protocol summary: Antiproliferative activity against human A2780 cells
Format: functional, cell-based
attribute measured: pIC50
Numbers only, as −log10 of the molar value.

Request: What value of pIC50 has been recorded for this entry: CN(C)C(=O)N1Cc2cc(Cl)ccc2C(c2cccc(O)c2)C1 (centres undefined)
Response: 5.92

Request: So what's the measured pIC50 for this one? Cc1ccc2c(c1)CN(C(=O)N(C)C)CC2c1cccc(O)c1 (centres undefined)
Response: 6.07

Request: I would be grateful if you could share the reported pIC50 for CCc1cccc2c1CN(C(=O)N(C)C)CC2c1cccc(O)c1 (centres undefined) .
Response: 6.73

Request: Report pIC50 for Cc1ccc2c(c1C)CN(C(C)C)CC2c1ccccc1 (centres undefined) please.
Response: 5.20

Request: What does the record list as pIC50 for Cc1ccc2c(c1C)CN(CCCCN(C)C)CC2c1ccccc1 (centres undefined) ?
Response: 5.73

Request: For the molecule COc1cccc2c1CN(C(=O)N(C)C)CC2c1cccc(O)c1 (centres undefined) , what pIC50 is on record?
Response: 6.48

Request: Recorded pIC50 of COc1ccc2c(c1OC)CN(C(=O)N(C)C)CC2c1cccc(O)c1 (centres undefined) , please.
Response: 5.53

Request: Look up pIC50 for this molecule: Cc1cccc2c1CN(C(=O)N(C)C)CC2c1cccc(O)c1 (centres undefined)
Response: 5.69

Quick batch: pIC50 for everything below.
1. Cc1ccc2c(c1C)CNCC2c1ccccc1 (centres undefined)
2. COc1ccc2c(c1)CN(C(=O)N(C)C)CC2c1cccc(O)c1 (centres undefined)
3. Cc1ccc2c(c1C)CN(C(=O)N(C)C)CC2c1cccc(Cl)c1 (centres undefined)

Response:
5.04
6.40
5.52

----------
Tested on: A2780
protocol summary: Antiproliferative activity against human A2780-TAXR cells
Type: functional, cell-based
attribute measured: IC50 (nM)
Give bare numbers, in nM.

Request: Endpoint output: IC50 of Cc1ccc2c(c1C)CN(C(=O)N(C)C)C[C@@H]2c1cccc(O)c1 . Value?
Response: 215

----------
Could you please report measured log10 of IC50 for the items listed next?
target entity: Kinesin-like protein KIF11 (Homo sapiens, UniProt P52732)
Sequence (P52732 whole entry): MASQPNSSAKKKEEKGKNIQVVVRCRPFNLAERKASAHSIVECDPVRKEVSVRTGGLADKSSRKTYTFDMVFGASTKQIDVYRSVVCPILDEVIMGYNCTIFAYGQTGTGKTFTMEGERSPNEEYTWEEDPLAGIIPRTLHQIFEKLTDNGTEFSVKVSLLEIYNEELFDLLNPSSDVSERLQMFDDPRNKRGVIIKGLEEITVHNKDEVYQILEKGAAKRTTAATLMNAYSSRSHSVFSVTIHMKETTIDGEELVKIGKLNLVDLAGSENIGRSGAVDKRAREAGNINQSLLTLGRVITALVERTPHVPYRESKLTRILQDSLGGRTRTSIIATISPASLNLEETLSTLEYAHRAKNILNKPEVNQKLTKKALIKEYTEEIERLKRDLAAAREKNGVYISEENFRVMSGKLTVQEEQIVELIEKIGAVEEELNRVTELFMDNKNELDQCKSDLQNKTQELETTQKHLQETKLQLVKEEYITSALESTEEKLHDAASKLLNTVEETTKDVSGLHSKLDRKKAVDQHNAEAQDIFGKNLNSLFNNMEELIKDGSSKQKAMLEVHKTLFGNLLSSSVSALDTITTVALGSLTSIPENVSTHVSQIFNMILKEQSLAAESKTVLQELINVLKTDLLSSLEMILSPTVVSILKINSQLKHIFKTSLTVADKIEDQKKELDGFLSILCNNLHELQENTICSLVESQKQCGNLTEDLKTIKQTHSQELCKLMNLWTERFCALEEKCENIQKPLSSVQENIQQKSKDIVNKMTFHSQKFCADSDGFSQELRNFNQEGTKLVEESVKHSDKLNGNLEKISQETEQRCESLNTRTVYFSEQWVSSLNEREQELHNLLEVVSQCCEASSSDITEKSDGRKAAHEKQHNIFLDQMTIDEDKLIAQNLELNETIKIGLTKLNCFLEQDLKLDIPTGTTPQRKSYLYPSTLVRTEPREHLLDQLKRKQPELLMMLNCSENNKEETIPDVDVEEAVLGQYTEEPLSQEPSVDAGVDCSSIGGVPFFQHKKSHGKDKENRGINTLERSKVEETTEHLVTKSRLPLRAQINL
protocol summary: Inhibition of Eg5 by ATPase assay
All values: log10 IC50 [µM].

In the examples that follow, each entry is paired with its recorded log10 of IC50.
Request: What measured log10 of IC50 goes with Cc1ccc2c(c1C)CN(CCCN)CC2c1ccccc1 (configuration not stated) ?
Response: 0.49

Request: Need log10 of IC50 of CCc1cccc2c1CN(C(=O)N(C)C)CC2c1cccc(O)c1 (configuration not stated) , thanks.
Response: -0.46

Request: Could you share which log10 of IC50 value was measured for CN(C)C(=O)N1Cc2c(ccc3c2OCC3)C(c2cccc(O)c2)C1 (configuration not stated) ?
Response: -0.19

Request: # input compound: Cc1ccc2c(c1C)CN(CCCN(C)C)CC2c1ccccc1 (configuration not stated) ; wanted: its log10 of IC50
Response: 0.95

Request: Which log10 of IC50 value belongs to Cc1ccc2c(c1C)CN(CCCCN(C)C)CC2c1ccccc1 (configuration not stated) ?
Response: 0.73

Request: Returns the measured log10 of IC50 for the input compound. Input: CC(=O)N1Cc2c(ccc(C)c2C)C(c2ccccc2)C1 (configuration not stated)
Response: 1.25

# batch size: 3; output log10 of IC50 per entry
1. Cc1ccc2c(c1C)CN(C(=O)N(C)CCCN(C)C)CC2c1ccccc1 (configuration not stated)
2. COc1ccc2c(c1OC)CN(C(=O)N(C)C)CC2c1cccc(O)c1 (configuration not stated)
3. Cc1ccc2c(c1C)CN(CCN)CC2c1ccccc1 (configuration not stated)

Response:
[0.74, 1.11, 0.36]

Reference source for all entries: ChEMBL document CHEMBL1146117
